# Tested on: SK-MEL-2 melanoma
# EXPERIMENTAL PROTOCOL: NCI-60 one-dose screen, 48 h
# CONDITION INFO: 10 µM unless noted
Compounds without any hit were thinned out: in the full panel of roughly 83,000, 20% have a hit. Active and inactive are the calls of the source. The calls were made as follows: active = growth percent below 10; inactive = the rest.
Labels: active, inactive

C#Cc1cccc(Nc2nc3ccc([N+](=O)[O-])cc3nc2Nc2cccc(C#C)c2)c1	active
O=C(/C=C\c1ccco1)/C=C/c1ccco1	inactive
COc1cc(C(=O)/C=C/c2c(-c3cccs3)nc3ccccn23)cc(OC)c1OC	inactive
CCCCCCCCNc1cc2c3c(c1)CCCN3CCC2	active
CC(C)CN1CC(C(=O)Nc2ccc3c(c2)-c2ccccc2C3)CC1=O (stereo unspecified)	inactive
COc1cc(/C=C/c2cc(/C=C/c3ccc(O)c(OC)c3)n(C(=O)Nc3ccc(F)cc3)n2)ccc1O	active

----------
# System: HCC-2998 colon
# EXPERIMENTAL PROTOCOL: NCI-60 one-dose screen, 48 h
# CONDITION INFO: 10 µM unless noted
The panel holds about 83,000 compounds, 20% with a hit somewhere; the sample as a whole holds those more often. Active and inactive are the calls of the source. The calls were made as follows: active = growth percent below 10; inactive = the rest.
Classes used: label 1 for active, label 0 for inactive

O=c1nc(Nc2nc3ccccc3s2)[nH]c(=O)c2ccccc12	label 0
CCCCn1sc(=O)n(Cc2ccc(CNC(=O)OCc3ccc4c(Br)cc(Br)c(O)c4n3)cc2)c1=O	label 0
CN1CCN(CCCOc2ccc3ncnc(Nc4ccc(Oc5cccc(F)c5)c(Cl)c4)c3c2)CC1	label 1
O=C1c2cccnc2C(=O)c2c1c(C(=O)OCCCN1CCCCC1)c1ccccn21	label 1
O=C1CCC(C(=O)NN(c2ccccc2)c2ccccc2)N1 (stereo not given)	label 0
Cc1nc2sc(C(=O)Nc3cccc(Cl)c3)c(N)c2cc1C(O)c1ccccc1 (stereo not given)	label 0
CCC(C)Nc1ccc(NC(C)CC)cc1 (stereo not given)	label 0
C=C1C(=O)O[C@H]2[C@H]1CC/C(CNC(=O)c1cc3ccccc3[nH]1)=C\CC[C@@]1(C)O[C@@H]21	label 1
COc1ccc(Cc2cnc(NC(=O)c3sc4ccccc4c3Cl)s2)cc1	label 0
C#Cc1cccc(Oc2ccc(NC(=O)CCl)cc2)c1	label 0

----------
# Tested on: NCI-H460 lung
# EXPERIMENTAL PROTOCOL: NCI-60 one-dose screen, 48 h (100 = growth as untreated, 0 = no growth, -100 = all killed)
# CONDITION INFO: 10 µM unless noted
About 83,000 compounds went through this panel and 20% of them were active in at least one assay; those are over-represented in the sample as a whole.
ENDPOINT NAME: growth (%)

COc1ccc(-c2cc(-c3cc(OC)c(OC)c(OC)c3)c(C#N)c(=O)n2CCCCCC(=O)NO)cc1	96.6
C=C(CN1CC=CCC1)[C@@H]1CC[C@]2(CO)CC[C@]3(C)[C@H](CC[C@@H]4[C@@]5(C)CC[C@H](O)C(C)(C)[C@@H]5CC[C@]43C)[C@@H]12	96.2
Cc1ccc(S(=O)(=O)n2cc(C3C(Cl)C(=O)N3c3ccc(N4CCOCC4=O)cc3)c3ccccc32)cc1 (centres undefined)	97.2
COc1cc2c(c(OC)c1OC)C(=O)CC(c1cccc(NC(=O)c3ccccc3Br)c1)O2 (centres undefined)	90.4

----------
# System: MOLT-4 leukemia
# EXPERIMENTAL PROTOCOL: NCI-60 one-dose screen, 48 h (100 = growth as untreated, 0 = no growth, -100 = all killed)
# CONDITION INFO: 10 µM unless noted
Compounds without any hit were thinned out: in the full panel of roughly 83,000, 20% have a hit.
Label scheme, based on growth: lower segment (below 50%), middle segment (50% to below 80%), upper segment (80% or more)

Cn1cc(-c2nn3cc(-c4ccccc4)nc3s2)c2ccccc21	middle segment
Cn1c(/C=C/[N+](=O)[O-])cc2ccccc21	lower segment
Cc1ccc(C)c2c1C(O)(C#Cc1ccccc1)c1ccccc1C2(O)C#Cc1ccccc1 (stereo not given)	lower segment
N#C/C(=C\c1ccc(Cl)cc1Cl)C(=O)Nc1ncc(Cc2ccc(Cl)c(Cl)c2)s1	upper segment
Cc1cccc(NC(=O)CSc2nc3ccc([N+](=O)[O-])cc3[nH]2)c1	middle segment
COc1ccc(-c2cn(-c3ccc(Cl)cc3)c(SCC(=O)c3ccc([N+](=O)[O-])cc3)n2)cc1	upper segment
Clc1nccc2c(-c3csc(-c4c[nH]c5ccccc45)n3)c[nH]c12	lower segment
Fc1ccc2c(c1)c(-c1nc(-c3c[nH]c4ncccc34)cs1)cn2CCCN1CCOCC1	lower segment
COc1cccc(C(=O)OCC(O)C(=O)NC23CC4CC(CC(C4)C2)C3)c1 (stereo not given)	upper segment
CCOC(=O)C1CCN(c2ccc(N3C[C@@H](CNCc4ccc(C(=N)N)cc4)OC3=O)cc2)CC1	upper segment
CCN(CC)CCOc1ccc(Nc2ncc3cc(-c4ccc(O)cc4)c(=O)n(C)c3n2)cc1	lower segment
O=S(=O)(c1ccccc1)N1CCCN(c2nc(-c3ccccc3)nc3nc(-c4ccccc4)oc23)CC1	upper segment
Cn1c(O)c(C(/C=C/c2ccccc2)=Nc2ccccc2N)c(=O)n(C)c1=O	lower segment
O=C(O)c1cccc(N/C=C/C(=O)c2cc3cc(Br)ccc3oc2=O)c1	upper segment
CC1(C)C2CC=C(/C=N/NC(=O)C3CCC(=O)N3)C1C2 (stereo not given)	upper segment
OC(c1ccccc1)(c1ccccc1)c1ccccc1-c1ccccc1	upper segment
c1ccc(CCc2ccccc2-c2cc(-c3ccccc3)on2)cc1	middle segment

----------
# Tested on: UO-31 renal
# EXPERIMENTAL PROTOCOL: NCI-60 one-dose screen, 48 h
# CONDITION INFO: 10 µM unless noted
About 83,000 compounds went through this panel and 20% of them were active in at least one assay; those are over-represented in the sample as a whole. Activity calls are given as the source filed them. Rule for the calls: active = growth percent below 10; inactive = the rest.
Labels: active, inactive

CCCCC(=O)Nc1ncc(Cc2ccccc2Cl)s1	inactive
CC(=O)c1cc(-c2ccccc2N)n(-c2ccc3c(c2)OCO3)c1C	inactive
CCOC(=O)c1c(-c2ccc(Cl)cc2)c(C#N)c2c(C#N)c(N)nn2c1N	inactive
Cn1cc(-c2nonc2-c2c[nH]c3ccccc23)c2ccccc21	inactive
COc1ccc(/C(C)=C(\c2ccc(OCCN3CCCCCC3)cc2)c2ccc(OC(=O)c3ccccc3)cc2)cc1	inactive
Cn1cc(-c2nonc2-c2c[nH]c3ccc(F)cc23)c2cc(Br)ccc21	inactive
CCCn1c(=S)sc2c1nc(C)n1c(Nc3ccccc3)nnc21	inactive
O=C(Nc1ccccc1)c1sc(-c2ccccc2)cc1O	inactive
CN1CCCc2cc(/C=C3/SC(=S)N(CCc4ccc(O)cc4)C3=O)ccc21	inactive
CCN(CC)CCNC(=O)c1ccc(-c2nc3ccc4[nH]ncc4c3c3c2CCCC3)cc1	inactive
COc1cc2oc(-c3cccc(NC(=O)c4ccc5c(c4)OCO5)c3)cc(=O)c2c(OC)c1OC	inactive
COc1ccc(Cl)cc1Nc1nc(C(F)(F)F)ccc1C(=O)N/N=C/c1ccccc1Cl	active
C=C(CO)[C@@H]1CC[C@]2(COC3CCCCO3)CC[C@]3(C)[C@H](CC[C@@H]4[C@@]5(C)C=C(C=O)C(=O)C(C)(C)[C@@H]5CC[C@]43C)[C@@H]12 (stereo not given in full)	active
CS(=O)(=O)Nc1cncc(-c2ccc3ncnc(Nc4ccc(F)c(Cl)c4)c3c2)c1	inactive
CC[C@H](CC[C@@H](C)[C@H]1CC[C@H]2[C@@H]3CC[C@@H]4CC(=O)/C(=C\c5ccncc5)C[C@]4(C)[C@H]3CC[C@]12C)C(C)C	inactive
S=c1ssnc1-c1cccs1	inactive
C/C(=N\O)C(=O)NCCCCCC(=O)Nc1ccccc1	inactive
CC(=O)N/C(=C1/OC(C(O)C(O)C(O)CO)CN1C)[P+](c1ccccc1)(c1ccccc1)c1ccccc1 (stereo not given)	inactive
O=C(N/N=C/c1ccc([N+](=O)[O-])cc1)c1ccc2nc(-c3ccc(Cl)cc3)[nH]c2c1	inactive
CCN(CC)c1ccc(N2C(=O)/C(=C/c3cccs3)SC2=S)cc1	inactive

----------
# System: HCT-116 colon
# EXPERIMENTAL PROTOCOL: NCI-60 one-dose screen, 48 h (100 = growth as untreated, 0 = no growth, -100 = all killed)
# CONDITION INFO: 10 µM unless noted
Compounds without any hit were thinned out: in the full panel of roughly 83,000, 20% have a hit.
So basically: is growth under 30%? Then criterion met. Not under? Then criterion not met.

N#Cc1c(NC(=O)c2cccs2)[n+]([O-])c2ccc(Cl)cc2[n+]1[O-]	criterion not met
O=C(/C=C/c1ccccc1)Nc1ncc(Cc2ccccc2)s1	criterion met
CCC(C)Nc1ccc(NC(C)CC)cc1 (stereo unspecified)	criterion met
CCCCCCCCNc1cc2c3c(c1)CCCN3CCC2	criterion met
COc1cc(C2=NN(C(C)=O)C(c3ccc(N(C)C)cc3)C2)cc(OC)c1OC (stereo unspecified)	criterion not met
Cc1nn(-c2ccccc2)c(/N=C/N(C)C)c1/C=C/C(=O)c1ccc(Cl)cc1	criterion not met
Nc1c(C(=O)Nc2ccncc2)sc2nc3c(cc12)CCCCC3	criterion not met
CCOC(=O)C1=C(c2ccccc2)N=c2s/c(=C/c3ccc(Br)cc3)c(=O)n2C1c1ccc(O)cc1 (stereo unspecified)	criterion not met
CCCCCCCC/C=C\CCCCCCCCOc1ccc(CC(=O)NCC[N+](C)(C)C)cc1	criterion not met
Clc1nccc2c(-c3csc(-c4c[nH]c5ccccc45)n3)c[nH]c12	criterion not met
c1ccc2cc(Cn3c[n+](Cc4ccc5ccccc5c4)c4ccccc43)ccc2c1	criterion met
COc1cc(C(=O)C(=O)c2cc(OC)c(O)c(OC)c2)cc(OC)c1O	criterion not met
N#Cc1nc2c(S(=O)(=O)c3ccccc3)c(N)n(Cc3cccnc3)c2nc1C#N	criterion not met
COc1ccc(/C=C/C(=O)c2ccc(NC(=O)CSc3nnc(-c4cc(-c5ccccc5)nc5ccccc45)n3-c3ccccc3)cc2)cc1	criterion not met
COc1ccc2cc(Cn3cc[n+](Cc4ccc5ccccc5c4)c3)ccc2c1	criterion not met
O=C1OCC2=C1C(c1cccc(C(F)(F)F)c1)c1cc3c(cc1N2CCO)OCO3 (stereo unspecified)	criterion met
CC1=CCC[C@@H]2C1(C)CC[C@H](C)[C@@]2(C)CC1=CC(=O)C(SC(C)(C)C)=CC1=O (stereo partly specified)	criterion not met
COC(=O)c1c2c(c(C)[n+]([O-])c1C)C(=O)C=CC2=O	criterion met
COc1cc(C2C3=C(COC3=O)N(CCO)c3cc4c(cc32)OCCO4)cc(OC)c1OC (stereo unspecified)	criterion met
COc1cc(C(=O)c2c(-c3ccccc3)oc3c(OC)cccc23)cc(OC)c1O	criterion met
COc1ccc(-c2nnc(SCC(=O)Nc3ccc(/C(C)=N\O)cc3)n2-c2ccccc2)cc1OC	criterion not met
CCNCc1ccc(O)c2ncccc12	criterion met
C[Se]C(=O)CC1=C2C=C(F)C=CC2/C(=C\c2ccc(S(C)=O)cc2)C1C (stereo unspecified)	criterion met
COC(=O)c1c2c(n3ccc(C)cc13)C(=O)c1ccccc1C2=O	criterion not met
CCOC(=O)c1n[nH]n2c1nc(=O)c1cnn(C)c12	criterion not met
O=P(O)(O)OCC1OC(n2cnc3c(NCc4ccccc4)ncnc32)C(O)C1O (stereo unspecified)	criterion met
COC(=O)c1nc(-c2ccccc2)oc1S(=O)(=O)N1CCC(C(N)=O)CC1	criterion not met
CCCCCCC(=O)Nc1ncc(Cc2ccc(C)cc2)s1	criterion not met
CN(CCC#N)c1ccc(/C=C2\NC(=O)NC2=O)cc1	criterion not met
COc1ccc(Nc2ncc(C(N)=O)c(NCCCNC(=O)C3CCC3)n2)cc1	criterion not met
O=C(/C=C/C12c3ccccc3C(c3ccccc31)C1C(=O)NC(=O)C12)c1ccccn1 (stereo unspecified)	criterion met
COc1cccc(/C=C/C(=O)c2cc3c(N)c(C(=O)Nc4ccccc4C)sc3nc2C)c1	criterion not met
Cc1ccc(Nc2nc(-c3ccc(F)cc3)c(C#N)c(=O)n2C)cc1	criterion not met
CCN(CC)c1ccc(/C=N\NC(=O)c2cccc(Nc3ccnc(C(F)(F)F)c3)c2)c(O)c1	criterion met
CCOC(=O)C/C(=N\Nc1cc(=O)[nH]c2ccc(Cl)cc12)C(=O)OCC	criterion not met
CCN(CC)S(=O)(=O)c1ccc(S(=O)(=O)N2CCC[C@@H](C(=O)N3CCN(C(=O)OC(C)(C)C)CC3)C2)cc1	criterion not met
COc1ccc(C(c2cc(OC)c(OC)c(OC)c2)N2CCN(Cc3ccccc3)CC2)cc1 (stereo unspecified)	criterion not met
Cc1ccc(/C=C2\CN(C(=O)C(Cl)Cl)C/C(=C\c3ccc(C)cc3)C2=O)cc1	criterion met
C=CCn1c(SCC(=O)Nc2ccc(C(=O)/C=C/c3ccc(OC)cc3)cc2)nnc1-c1ccccc1	criterion met
COc1ccc(C2C3=C(COC3=O)N(CCO)c3cc4c(cc32)OCCO4)cc1OC (stereo unspecified)	criterion met
COc1ccc2cc(-c3ccc(-c4ccc(C(=N)N)s4)s3)ccc2c1	criterion met

FYI, the data here is from PubChem BioAssay (NCI).
